In this section we review reported pIC50 values for a set of binders.
target entity: HLA-A*0203 (human)
conditions: remark: other sources report otherwise
pIC50: −log10 of the molar value.
experimental endpoint: pIC50

# binder, experimental endpoint, quantitative readout
rows = [
    ("HLLSNDMCV [peptide 1418.20, HuK2.177.V9]", "pIC50", 6.56),
    ("LLSNDMCARV [peptide 1418.53, HuK2.178.V10]", "pIC50", 8.37),
]
